B1: library; a variant is named by its letters at N, in order (parent)
chain: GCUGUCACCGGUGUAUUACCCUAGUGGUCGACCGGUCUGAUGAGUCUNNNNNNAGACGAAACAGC

Variants of: B1
Protocol Notes: normalized RNA/DNA level with ligand (relative to sTRSVctl = 100) (log10 (% of sTRSVctl)); ligand: hypoxanthine (xanthine aptamer); higher = less ribozyme self-cleavage, higher mRNA level
Condition Parameters: ligand concentration (+) RNA-Seq: 5 mM, HEK293T, reporter: mCherry (pCS4076), ligand present: yes
Catalogue of variants with associated normalized RNA/DNA level with ligand (log10)
Result Type: normalized RNA/DNA level with ligand (log10)

{"Ordered Residues": "GCUGUCACCGGUGUAUUACCCUAGUGGUCGACCGGUCUGAUGAGUCUAUGAGCAGACGAAACAGC [AUGAGC]", "Experimental Value": 1.89}
{"Ordered Residues": "GCUGUCACCGGUGUAUUACCCUAGUGGUCGACCGGUCUGAUGAGUCUCGCCCGAGACGAAACAGC [CGCCCG]", "Experimental Value": 1.96}
{"Ordered Residues": "GCUGUCACCGGUGUAUUACCCUAGUGGUCGACCGGUCUGAUGAGUCUCCGCUCAGACGAAACAGC [CCGCUC]", "Experimental Value": 2.01}
{"Ordered Residues": "GCUGUCACCGGUGUAUUACCCUAGUGGUCGACCGGUCUGAUGAGUCUGCAAGCAGACGAAACAGC [GCAAGC]", "Experimental Value": 1.89}
{"Ordered Residues": "GCUGUCACCGGUGUAUUACCCUAGUGGUCGACCGGUCUGAUGAGUCUAAUCGGAGACGAAACAGC [AAUCGG]", "Experimental Value": 1.84}
{"Ordered Residues": "GCUGUCACCGGUGUAUUACCCUAGUGGUCGACCGGUCUGAUGAGUCUGCAGACAGACGAAACAGC [GCAGAC]", "Experimental Value": 1.89}
{"Ordered Residues": "GCUGUCACCGGUGUAUUACCCUAGUGGUCGACCGGUCUGAUGAGUCUGCGCGUAGACGAAACAGC [GCGCGU]", "Experimental Value": 1.92}
{"Ordered Residues": "GCUGUCACCGGUGUAUUACCCUAGUGGUCGACCGGUCUGAUGAGUCUUGAAGGAGACGAAACAGC [UGAAGG]", "Experimental Value": 1.83}
{"Ordered Residues": "GCUGUCACCGGUGUAUUACCCUAGUGGUCGACCGGUCUGAUGAGUCUACCCUAAGACGAAACAGC [ACCCUA]", "Experimental Value": 1.94}
{"Ordered Residues": "GCUGUCACCGGUGUAUUACCCUAGUGGUCGACCGGUCUGAUGAGUCUUGAUUAAGACGAAACAGC [UGAUUA]", "Experimental Value": 1.91}
{"Ordered Residues": "GCUGUCACCGGUGUAUUACCCUAGUGGUCGACCGGUCUGAUGAGUCUCCGGUAAGACGAAACAGC [CCGGUA]", "Experimental Value": 1.93}
{"Ordered Residues": "GCUGUCACCGGUGUAUUACCCUAGUGGUCGACCGGUCUGAUGAGUCUGUCCAUAGACGAAACAGC [GUCCAU]", "Experimental Value": 1.95}
{"Ordered Residues": "GCUGUCACCGGUGUAUUACCCUAGUGGUCGACCGGUCUGAUGAGUCUGGUUAGAGACGAAACAGC [GGUUAG]", "Experimental Value": 1.73}
{"Ordered Residues": "GCUGUCACCGGUGUAUUACCCUAGUGGUCGACCGGUCUGAUGAGUCUAUGACCAGACGAAACAGC [AUGACC]", "Experimental Value": 1.91}
{"Ordered Residues": "GCUGUCACCGGUGUAUUACCCUAGUGGUCGACCGGUCUGAUGAGUCUCUGGUUAGACGAAACAGC [CUGGUU]", "Experimental Value": 2.01}
{"Ordered Residues": "GCUGUCACCGGUGUAUUACCCUAGUGGUCGACCGGUCUGAUGAGUCUCACAAUAGACGAAACAGC [CACAAU]", "Experimental Value": 1.89}
{"Ordered Residues": "GCUGUCACCGGUGUAUUACCCUAGUGGUCGACCGGUCUGAUGAGUCUCGAAUUAGACGAAACAGC [CGAAUU]", "Experimental Value": 1.95}
{"Ordered Residues": "GCUGUCACCGGUGUAUUACCCUAGUGGUCGACCGGUCUGAUGAGUCUGGGGUUAGACGAAACAGC [GGGGUU]", "Experimental Value": 1.98}
{"Ordered Residues": "GCUGUCACCGGUGUAUUACCCUAGUGGUCGACCGGUCUGAUGAGUCUCGAACAAGACGAAACAGC [CGAACA]", "Experimental Value": 1.94}
{"Ordered Residues": "GCUGUCACCGGUGUAUUACCCUAGUGGUCGACCGGUCUGAUGAGUCUCGUGUGAGACGAAACAGC [CGUGUG]", "Experimental Value": 1.9}
{"Ordered Residues": "GCUGUCACCGGUGUAUUACCCUAGUGGUCGACCGGUCUGAUGAGUCUCCAAUGAGACGAAACAGC [CCAAUG]", "Experimental Value": 1.93}
{"Ordered Residues": "GCUGUCACCGGUGUAUUACCCUAGUGGUCGACCGGUCUGAUGAGUCUUCCUCUAGACGAAACAGC [UCCUCU]", "Experimental Value": 1.99}
